Test system: L1210 leukemia ip in BDF1 mice, survival T/C
test description: NCI In Vivo Anticancer Drug Screen. Data for tumor model L1210 Leukemia (intraperitoneal) in B6D2F1 (BDF1) mice
condition parameters: endpoint: mean survival time; dose: 100.0 mg/kg/injection; schedule: Q01DX001 (ip); vehicle: Klucel (hydroxypropylcellulose) (HPC); higher = longer survival
Method: The antitumor activity of compounds was measured in mice bearing transplantable tumors. Survival or tumor size were measured and the results are expressed as the measurement made in the treated group (T) divided by the measurement made in the vehicle treated control group (C). The tumor model used in this assay is L1210 Leukemia (intraperitoneal) in B6D2F1 (BDF1) mice
Toxic doses and inconclusive results are not listed.
assay readout: T/C

> print(dat)
                                   compound  reported.result
1  CC(C)C(C)/C=C\C(C)C1CCC2C3=CCC4CC(O)CCC4(C)C3CCC21C (configuration not stated)  97 % of control
2               Nc1ccc2c(c1)C(=O)c1ccccc1-2  88 % of control
3       O=C1c2ccccc2-c2c3c(cc4ccnc1c24)OCO3  93 % of control

Items follow; give T/C for each.
1. COC(=O)CCC(NC(=O)CCCNC(=O)OCc1ccccc1)C(=O)OC (configuration not stated)
2. O=C(CC(=O)OCc1ccc([N+](=O)[O-])cc1)OCc1ccc([N+](=O)[O-])cc1
3. O=C1C(NC2CCCCC2)=C(c2ccccc2)c2ccccc21

Out:
96 % of control
92 % of control
92 % of control

----------
Test system: L1210 leukemia ip in BDF1 mice, survival T/C
test description: NCI In Vivo Anticancer Drug Screen. Data for tumor model L1210 Leukemia (intraperitoneal) in B6D2F1 (BDF1) mice
condition parameters: endpoint: mean survival time; dose: 400.0 mg/kg/injection; schedule: Q01DX009 (ip); vehicle: Klucel (hydroxypropylcellulose) (HPC); higher = longer survival
Toxic doses and inconclusive results are not listed.
assay readout: T/C

> print(dat)
                                   compound  assay.readout   reported.result
1             CCOC(=O)c1ccc(NS(C)(=O)=O)cc1            T/C   92 % of control
2        Cc1ccc(Oc2c3c(nc4ccccc24)CCCC3)cc1            T/C   96 % of control
3         COC(=O)c1ccccc1NC(=O)Nc1cccc(F)c1            T/C  113 % of control
4       Cc1cccc(C)c1NC(=O)Nc1ccc(Cl)c(Cl)c1            T/C   94 % of control
5  COc1cc2c(cc1OC)C(OC)N(C)c1c-2ccc2cc3c(cc12)OCO3 (stereo not given)            T/C  124 % of control

Items follow; give T/C for each.
1. O=C1c2ccccc2C(=O)N1Cc1c(Cl)cccc1[N+](=O)[O-]
2. O=C(NCCCl)NC1c2cc(Cl)ccc2-c2c(Cl)cc(Cl)cc21 (stereo not given)
3. COc1ccc(C)cc1NC(=O)c1ccc(F)cc1
4. CC(C)c1ccc(NCN2C(=O)c3ccccc3C2=O)cc1
5. CN1C(=O)c2ccccc2C1(N)c1ccccc1 (stereo not given)
6. Cc1cc(Cl)ccc1OC(=O)Nc1cccc(Cl)c1Cl

Out:
["92 % of control", "95 % of control", "100 % of control", "101 % of control", "100 % of control", "94 % of control"]

Items follow; give T/C for each.
1. Cc1cc(N(CCCl)CCCl)ccc1C=Nc1ccccc1C(=O)O
2. CCCCCCCCCCCCCCCCCC(=O)N/N=C/C(=C\c1ccccc1)CCCCCC
3. O=c1oc(-c2ccccc2I)nc2ccccc12
4. Cc1cc(C)c(C(=O)/C=C/c2ccccc2)c(C)c1
5. Cc1cc(OCCOC(=O)Nc2ccccc2F)cc(C)c1Cl
6. CC1CCN(c2ccc([N+](=O)[O-])cc2)CC1
7. Cc1cccc(C)c1N=C/C=C/c1ccccc1
8. C=C(C)C1Cc2c(ccc3c(=O)c4c(oc23)C(O)Oc2cc(OC)c(OC)cc2-4)O1 (stereo not given)

Out:
["98 % of control", "93 % of control", "88 % of control", "94 % of control", "103 % of control", "100 % of control", "102 % of control", "97 % of control"]

Items follow; give T/C for each.
1. CC(C)OC(=O)Nc1ccccc1
2. CC(C)NC(=O)Oc1ccc(Br)cc1Br
3. Cc1ccc([N+](=O)[O-])cc1NC(=O)N(CCC#N)C1CCCCC1
4. COC(=O)c1ccccc1NC(=O)Nc1ccc(SC)cc1

Out:
["110 % of control", "113 % of control", "95 % of control", "95 % of control"]

Items follow; give T/C for each.
1. O=C(CC(C[N+](=O)[O-])c1ccccc1)c1ccc(Cl)cc1 (stereo not given)
2. CCOc1ccc(NC(=O)C=O)cc1

Out:
1. 92 % of control
2. 105 % of control
